Value source: patent US4861778A

Test system: serum cholesterol and serum triglyceride
Assay details: Hypolipidemic activity of 2,3-dihydrophthalazine-1,4-diones in normal male mice (Example 11, Table II)
Assay type: in vivo, CF1 male mice
Condition set: Mus musculus, ip, 216 h; CF1 male mice, 20 mg/kg/day intraperitoneally, Day 9; read-out: Serum Cholesterol Day 9, percent control ± standard deviation
Readout name: response vs control in vivo at 20 mg/kg/day (%)
One number for each entry, in %.

Please review the entries below; each comes with its answer.
- Chem smiles: "O=c1c2ccccc2c(O)nn1-c1cccc(Cl)c1"
  Endpoint value: 73
- Chem smiles: "Cc1cccc2c(=O)[nH]nc(O)c12"
  Endpoint value: 80
- Chem smiles: "Cn1nc(O)c2ccccc2c1=O"
  Endpoint value: 72
- Chem smiles: "CCCOc1nn(CCC)c(=O)c2ccccc12"
  Endpoint value: 68

Below are some compounds; for each one, tell me its response vs control in vivo at 20 mg/kg/day.
1. COc1ccc2c(=O)[nH]nc(O)c2c1
2. CCCCn1[nH]c(=O)c2ccccc2c1=O

[77, 59]

* * *

System: serum cholesterol and serum triglyceride
Assay details: Hypolipidemic activity of 2,3-dihydrophthalazine-1,4-diones in normal male mice (Example 11, Table II)
Type: in vivo, CF1 male mice
Condition set: Mus musculus, ip, 216 h; CF1 male mice, 20 mg/kg/day intraperitoneally, Day 9; read-out: Serum Cholesterol Day 9, percent control ± standard deviation
Readout name: response vs control in vivo at 20 mg/kg/day (%)
One number for each entry, in %.

Please review the entries below; each comes with its answer.
- Molecule: "COc1nn(C)c(=O)c2ccccc12 [Compound 3, 2-Methyl-4-Methoxyphthalazine-1(2H)-One]"
  Endpoint value: 84
- Molecule: "CCOc1nn(CC)c(=O)c2ccccc12 [Compound 5]"
  Endpoint value: 77
- Molecule: "O=c1[nH][nH]c(=O)c2c(Cl)cccc12 [Compound 12]"
  Endpoint value: 72
- Molecule: "CCOC(=O)Cn1[nH]c(=O)c2ccccc2c1=O [Compound 19]"
  Endpoint value: 78

Measured response vs control in vivo at 20 mg/kg/day of O=c1[nH]n(-c2ccc(Cl)cc2)c(=O)c2ccccc12 [Compound 24] : 60

* * *

Tested on: serum cholesterol and serum triglyceride
Assay details: Hypolipidemic activity of 2,3-dihydrophthalazine-1,4-diones in normal male mice (Example 11, Table II)
Assay type: in vivo, CF1 male mice
Condition set: Mus musculus, ip, 216 h; CF1 male mice, 20 mg/kg/day intraperitoneally, Day 9; read-out: Serum Cholesterol Day 9, percent control ± standard deviation
Readout name: response vs control in vivo at 20 mg/kg/day
Answer with the figure and its unit, nothing else.

- Compound: "Cc1cccc(-n2nc(O)c3ccccc3c2=O)c1"
  Assayed target: "serum cholesterol and serum triglyceride"
  Endpoint value: "87%"
- Compound: "O=c1[nH][nH]c(=O)c2ccccc12 [Compound 1, 2,3-Dihydrophthalazine-1,4-Dione]"
  Assayed target: "serum cholesterol and serum triglyceride"
  Endpoint value: "53%"
- Compound: "CCCCCn1nc(O)c2ccccc2c1=O"
  Assayed target: "serum cholesterol and serum triglyceride"
  Endpoint value: "74%"
- Compound: "CCCCOc1nn(CCCC)c(=O)c2ccccc12"
  Assayed target: "serum cholesterol and serum triglyceride"
  Endpoint value: "65%"
- Compound: "CCCCCOc1nn(CCCCC)c(=O)c2ccccc12"
  Assayed target: "serum cholesterol and serum triglyceride"
  Endpoint value: "86%"

Below are some compounds; for each one, tell me its response vs control in vivo at 20 mg/kg/day.
1. O=C(O)CCn1[nH]c(=O)c2ccccc2c1=O
2. O=c1[nH]nc(O)c2cc(Cl)ccc12
3. O=c1c2ccccc2c(O)nn1-c1ccccc1Cl
4. CCn1[nH]c(=O)c2ccccc2c1=O [Compound 4, 2-Ethyl-2,3-Dihydrophthalazine-1,4-Dione]
5. Cc1ccc2c(=O)[nH][nH]c(=O)c2c1

54%
72%
72%
71%
66%
